// provenance: PubChem BioAssay AID488969

target-entity: Metabotropic glutamate receptor 8 (Rattus norvegicus) (UniProt P70579)
Sequence (P70579 whole entry, looked up): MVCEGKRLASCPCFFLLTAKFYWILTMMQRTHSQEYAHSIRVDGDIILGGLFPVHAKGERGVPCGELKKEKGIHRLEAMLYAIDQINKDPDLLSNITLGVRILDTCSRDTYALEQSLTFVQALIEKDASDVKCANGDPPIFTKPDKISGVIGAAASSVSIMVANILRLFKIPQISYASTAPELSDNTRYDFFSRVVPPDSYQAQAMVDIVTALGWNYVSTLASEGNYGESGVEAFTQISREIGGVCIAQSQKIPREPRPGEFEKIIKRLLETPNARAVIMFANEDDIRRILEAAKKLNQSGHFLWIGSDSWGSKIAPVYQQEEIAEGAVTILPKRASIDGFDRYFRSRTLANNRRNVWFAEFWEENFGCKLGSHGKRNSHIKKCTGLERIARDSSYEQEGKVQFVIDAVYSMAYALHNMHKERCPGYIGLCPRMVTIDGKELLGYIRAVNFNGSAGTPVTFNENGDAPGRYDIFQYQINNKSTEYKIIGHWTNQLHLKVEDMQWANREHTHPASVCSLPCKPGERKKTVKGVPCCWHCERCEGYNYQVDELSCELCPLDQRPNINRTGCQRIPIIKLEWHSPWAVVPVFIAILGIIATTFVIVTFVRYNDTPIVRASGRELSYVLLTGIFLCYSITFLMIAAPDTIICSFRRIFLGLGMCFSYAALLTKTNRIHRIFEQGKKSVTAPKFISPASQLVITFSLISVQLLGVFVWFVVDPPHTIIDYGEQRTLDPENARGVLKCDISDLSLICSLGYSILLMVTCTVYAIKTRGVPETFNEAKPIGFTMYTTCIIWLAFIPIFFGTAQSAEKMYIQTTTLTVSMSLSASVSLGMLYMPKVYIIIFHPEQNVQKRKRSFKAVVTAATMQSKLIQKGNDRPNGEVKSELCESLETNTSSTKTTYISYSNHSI
measurement-protocol: mGluR8 Gi/Go-coupled signaling modulation – cell-based, rat, thallium flux, HTS, primary screen (AID 488969)
assay-setup: HEK293 rat mGluR8, GIRK thallium flux, FluoZin2; at 10 µM; stronger effect = higher value; submaximal glutamate (EC20) added with thallium
The full ranking holds about 110,000 compounds; the median of “z-score” is about -0.1, and the highest 2% start at about 2. For the sample, the highest values were picked, then their nearest neighbours and some compounds at random.
Classify by measured z-score: true (1) if it is equal to or exceeds -0.02, false (0) if it is smaller.

Query block: Hi team, for Cc1ccccc1C(=O)Nc1ccccc1C(=O)NCc1ccccc1 , is the recorded z-score at or above -0.02?
Result block: false (0)

Query block: Hello, I need to know if COCCn1c(C)cc(C2=NNC(=Nc3ccccc3)SC2)c1C has measured z-score not below -0.02. Thanks!
Result block: false (0)

Query block: Identify whether the reported z-score of the following compound is -0.02 or greater: O=C(Cn1nnc(-c2ccccc2F)n1)Nc1cccc2ncccc12
Result block: true (1)

Query block: Does z-score meet or surpass -0.02 for O=C(Cn1nnc(-c2ccccc2F)n1)NCCc1ccccc1 ?
Result block: false (0)

====

target-entity: Metabotropic glutamate receptor 8 (Rattus norvegicus) (UniProt P70579)
measurement-protocol: mGluR8 Gi/Go-coupled signaling modulation – cell-based, rat, thallium flux, HTS, primary screen (AID 488969)
assay-setup: HEK293 rat mGluR8, GIRK (G protein-gated inwardly rectifying potassium channel) thallium flux, FluoZin2; at 10 µM; stronger effect = higher value; submaximal glutamate (EC20) added with thallium
In all, about 110,000 compounds were measured (“z-score”: median about -0.1, highest 2% from about 2 on). The list comes from a sample in which the highest values are over-represented; it also holds close analogues and randomly drawn compounds.
Label condition met when z-score >= -0.04; otherwise condition not met.

Query block: Entry CCN1CCN(CCCCSc2ccccc2)CC1 : is its z-score no less than -0.04?
Result block: condition not met

Query block: Determine whether this molecule has z-score no lower than -0.04: c1ccc(OCCCN2CCCC2)cc1
Result block: condition met

Query block: Could you tell me if the measured z-score of CCCN(CCC)C1=N/C(=C\c2ccco2)C(=O)N1c1ccccc1 reaches -0.04 or more?
Result block: condition not met

Query block: Would you say Cc1ccccc1C(=O)NC(=S)NCCc1ccccc1 shows z-score at minimum -0.04?
Result block: condition met

Query block: Hello, I need to know if CCN(CC)CCCn1c(C)cc2c(c1=O)C(c1ccccc1)C(C#N)=C(N)O2 (centres undefined) has measured z-score not below -0.04. Thanks!
Result block: condition met

Query block: Quick check, z-score >= -0.04? CC(C)C(=O)NC(=S)NCC(=O)c1ccccc1
Result block: condition not met

Query block: Is it the case that Cc1c(NC(=O)C(C)c2ccc(CC(C)C)cc2)c(=O)n(-c2ccccc2)n1C (centres undefined) has z-score reaching or exceeding -0.04?
Result block: condition not met

Query block: Given the entry COc1cc(SC#N)ccc1N=Cc1c(C)[nH]n(-c2ccc(C)cc2C)c1=O , answer whether its z-score meets or surpasses -0.04.
Result block: condition not met

Query block: Is z-score for O=C(/C=C/c1ccccc1)NC(NC(=S)Nc1cc(Cl)ccc1Cl)C(Cl)(Cl)Cl (centres undefined) at or above -0.04?
Result block: condition met

Query block: For this molecule, is measured z-score -0.04 or higher? O=C(/C=C/c1ccccc1)NC(NC(=S)Nc1cccc(Cl)c1)C(Cl)(Cl)Cl (centres undefined)
Result block: condition met

Query block: Quick check: does CCN(CC)CCCn1c(C)cc2c(c1=O)C(c1ccc(OC)c(OC)c1OC)C(C#N)=C(N)O2 (centres undefined) have z-score greater than or equal to -0.04?
Result block: condition not met

Query block: Exam item: decide whether the reported z-score for CCOC(=O)c1c(N)nn(C(=O)CC)c1-c1ccccc1 is at least -0.04.
Result block: condition not met

Query block: Quick check: does CCN(CC)S(=O)(=O)c1ccc2c(c1)nc(CCC(=O)Nc1cccc(C(F)(F)F)c1)n2CC have z-score greater than or equal to -0.04?
Result block: condition not met

Query block: Entry CCn1cc(CNC(=O)/C=C/c2ccc([N+](=O)[O-])cc2)c(C)n1 : is its z-score no less than -0.04?
Result block: condition not met

Query block: Is reported z-score greater than or equal to -0.04 here: CCOc1ccc(C(=O)CC(=O)C(=O)NCCc2ccc(OC)c(OC)c2)cc1
Result block: condition not met

Query block: z-score >= -0.04 for O=C(Cc1ccccc1)N/N=C/c1cc(Br)c(Br)o1 ?
Result block: condition not met

Query block: Dear colleague, could you confirm whether Cc1csc(SCC(=O)N2CCN(S(=O)(=O)c3ccc(Cl)cc3)CC2)n1 has z-score at or above -0.04?
Result block: condition met

Query block: Identify whether the reported z-score of the following molecule is -0.04 or greater: Cc1ccccc1Nc1nnc(C)c(=O)n1N
Result block: condition met

Query block: API: above_or_equal(metric=z-score, cutoff=-0.04) for item CCOc1ccc2nc(SC3CC(=O)N(c4ccc(C)cc4)C3=O)sc2c1 (centres undefined)
Result block: condition met
